The values you see were collected from paper PMC4280171.

Assay System: PDE5 (Homo sapiens)
Readout Name: IC50 (µM)
A number alone suffices; assume µM.

Compound	IC50 [µM]
COc1ccc(N2C(=O)C3N=NN(CC(=O)Nc4cc(C)cc(C)c4)C3C2=O)cc1OC (stereo not shown) [Compound 13]	90

[in] State the measured IC50 (PDE5 (Homo sapiens)) of COc1ccc(C2OCC3(O)C(c4ccc(OC)c(OC)c4)OCC23)cc1OC (stereo not shown) [Compound 6]
[out] 80
